test_system: ASGPR on the surface of immortalized human hepatocyte HepG2 cells (Homo sapiens, UniProt P07306+P07307)
Sequence (P07306 whole entry): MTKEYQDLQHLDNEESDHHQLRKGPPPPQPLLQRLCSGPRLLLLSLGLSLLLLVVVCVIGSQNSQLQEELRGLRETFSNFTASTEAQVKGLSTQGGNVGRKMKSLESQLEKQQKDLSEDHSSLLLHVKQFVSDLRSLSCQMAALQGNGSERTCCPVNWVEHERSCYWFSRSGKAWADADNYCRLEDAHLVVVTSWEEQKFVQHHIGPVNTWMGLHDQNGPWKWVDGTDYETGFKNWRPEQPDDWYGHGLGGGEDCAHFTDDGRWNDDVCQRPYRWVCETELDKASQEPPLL
Sequence (P07307 whole entry): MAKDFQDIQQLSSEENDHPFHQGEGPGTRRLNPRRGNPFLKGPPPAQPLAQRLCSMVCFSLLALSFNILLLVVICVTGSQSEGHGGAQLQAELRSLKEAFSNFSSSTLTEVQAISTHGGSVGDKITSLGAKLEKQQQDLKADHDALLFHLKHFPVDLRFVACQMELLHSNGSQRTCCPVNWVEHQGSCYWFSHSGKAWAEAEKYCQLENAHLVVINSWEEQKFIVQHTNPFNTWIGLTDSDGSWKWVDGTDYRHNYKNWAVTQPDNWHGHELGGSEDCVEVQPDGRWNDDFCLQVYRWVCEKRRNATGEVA
experiment_description: DNP-GN3-mediated ternary complex formation: association of fluorescently labeled α-DNP antibody with HepG2 cells in suspension
measured_attribute: pIC50
Here pIC50 is given on a logarithmic scale as minus log10 of the concentration in mol/L.

# pIC50 lookup, item CC(=O)N[C@H]1C(O)O[C@H](CO)[C@H](O)[C@@H]1O (stereo partly shown) [GalNAc, N-acetylgalactosamine]
3.70

---

Test system: HepG2 cells
experiment_description: MIF-GN3-mediated endocytosis of fluorescently labeled human MIF by HepG2 cells
condition_details: 100 nM MIF, 200 nM MIF-GN3; FIG. 132
measured_attribute: effect of endocytic pathway inhibitors on MIF-GN3-mediated MIF endocytosis

Check out these entries, answers already filled in.
C[C@@H]1[C@H](O)[C@@H](C)/C=C/C=C/CC/C=C/C=C/C=C/C=C/C(O[C@H]2O[C@H](C)[C@@H](O)[C@H](N)[C@@H]2O)CC2O[C@](O)(CC(O)C(O)CCC(O)CC(O)CC(O)CC(=O)O[C@H]1C)CC(O)C2C(=O)O (stereo partly drawn) [nystatin, Nystatin] | did not decrease
OC[C@H]1O[C@@](CO)(O[C@H]2O[C@H](CO)[C@@H](O)[C@H](O)[C@H]2O)[C@@H](O)[C@@H]1O [sucrose] | near background levels
Cl.N [ammonium chloride] | near background levels
CC[C@@]1([C@@H]2O[C@@H]([C@H]3O[C@@](O)(CO)[C@H](C)C[C@@H]3C)C[C@@H]2C)CC[C@H]([C@]2(C)CC[C@]3(C[C@H](O)[C@@H](C)[C@@H]([C@@H](C)[C@@H](OC)[C@H](C)C(=O)O)O3)O2)O1 [monensin, Monensin] | near background levels

What measured effect of endocytic pathway inhibitors on MIF-GN3-mediated MIF endocytosis is associated with CCN(CC)CCCC(C)Nc1ccnc2cc(Cl)ccc12 (stereo not drawn) [chloroquine, Chloroquine] on HepG2 cells?
near background levels

Query effect of endocytic pathway inhibitors on MIF-GN3-mediated MIF endocytosis on HepG2 cells for COc1ccc2c(c1)c(CC(=O)O)c(C)n2C(=O)c1ccc(Cl)cc1 [indomethacin, Indomethacin]
did not decrease

Record CO/C1=C\C(C)=C\[C@@H](C)[C@@H](O)[C@@H](C)C/C(C)=C/C=C/[C@H](OC)[C@@H]([C@@H](C)[C@@H](O)[C@H](C)[C@@]2(O)C[C@@H](O)[C@H](C)[C@@H](C(C)C)O2)OC1=O [bafilomycin, Bafilomycin] : what is its effect of endocytic pathway inhibitors on MIF-GN3-mediated MIF endocytosis with HepG2 cells?
near background levels
